- Study target: T1, mouse TMEM106B (mouse, UniProt Q80X71 2-275)
- T1 construct: on transiently transfected HEK293 cells, or natively expressed on mouse Neuro2a cells; also called moTMEM106B; murine TMEM106B
- Assay procedure: FACS, HEK293 transfectants;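 further: flow cytometry binding of hybridoma supernatants to HEK293 cells transiently expressing human, cyno or mouse TMEM106B, read as anti-mouse-APC median fluorescence, live cells only, 30 min on ice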
fold-change over parental HEK293 reference
Measurement label: fold-change over parental HEK293 (fold)

1) anti-TMEM106B antibody TM-14 (antibody, V domains shown, mouse IgG from hybridoma) VH: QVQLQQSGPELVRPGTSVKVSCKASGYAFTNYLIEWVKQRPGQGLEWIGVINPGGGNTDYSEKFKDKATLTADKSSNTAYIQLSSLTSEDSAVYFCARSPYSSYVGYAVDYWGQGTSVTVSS VL: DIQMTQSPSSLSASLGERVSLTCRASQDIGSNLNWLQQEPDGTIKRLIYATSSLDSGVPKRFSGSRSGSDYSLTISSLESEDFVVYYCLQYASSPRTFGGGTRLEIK = 1.77
2) anti-TMEM106B antibody TM-48 (antibody, V domains shown) VH: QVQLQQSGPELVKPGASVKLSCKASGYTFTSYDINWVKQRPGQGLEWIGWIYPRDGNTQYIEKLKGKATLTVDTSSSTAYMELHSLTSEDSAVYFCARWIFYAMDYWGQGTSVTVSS VL: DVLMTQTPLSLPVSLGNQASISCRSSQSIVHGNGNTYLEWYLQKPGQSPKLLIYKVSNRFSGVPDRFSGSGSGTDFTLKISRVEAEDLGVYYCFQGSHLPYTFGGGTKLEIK = 28.5
3) anti-TMEM106B antibody TM-52 (antibody, V domains shown, mouse IgG from hybridoma) VH: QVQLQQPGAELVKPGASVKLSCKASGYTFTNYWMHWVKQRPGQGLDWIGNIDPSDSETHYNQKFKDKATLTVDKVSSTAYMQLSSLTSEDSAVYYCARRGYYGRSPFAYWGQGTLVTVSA VL: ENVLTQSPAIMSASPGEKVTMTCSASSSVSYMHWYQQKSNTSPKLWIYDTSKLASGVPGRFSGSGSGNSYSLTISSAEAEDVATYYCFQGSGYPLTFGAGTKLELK = 0.67
